system: RXF-631 renal; assay: NCI tumour cell line growth inhibition, 48 h
So I've got a bunch of compounds here, and I need their TGI values.

For orientation, consider the following solved cases.
INSERT INTO results (compound, quantitymeasured, result) VALUES
  ('O=C1OC(c2ccccc2)(c2ccccc2)c2ccc3ccc(F)cc3c21', 'TGI', '> 100 µM'),
  ('CCO/C(CCn1[nH]c(=O)c(Cl)c(Cl)c1=O)=N\NC(=O)C(=O)NN', 'TGI', '> 100 µM');

Continue with the compound presented below.
Q: Observed TGI on RXF-631 renal for CC1(C)OC2CC3COC(=O)C3CC2O1 (stereo not drawn) , please.
A: > 100 µM
